Tested on: HCC1395 cells
Assay: in vitro
Conditions: human
Please use TRUE whenever HCC1395 Cytotoxicity Efficacy is not below 60%, and FALSE whenever it is.

Prompt line: # bool: HCC1395 Cytotoxicity Efficacy of Cc1ccc(C(C)Nc2ncnc3ccccc23)cc1 (centres unmarked) >= 60%
Response line: FALSE

Prompt line: # bool: HCC1395 Cytotoxicity Efficacy of COc1cccc(CNc2ccnc3ccccc23)c1 >= 60%
Response line: FALSE

Prompt line: # bool: HCC1395 Cytotoxicity Efficacy of CC(Nc1ncnc2sccc12)c1ccc(Cl)cc1 (centres unmarked) >= 60%
Response line: TRUE

Prompt line: # bool: HCC1395 Cytotoxicity Efficacy of CCN(Cc1cccc(OC)c1)c1ncnc2sccc12 >= 60%
Response line: TRUE

Prompt line: # bool: HCC1395 Cytotoxicity Efficacy of Cc1ccc(CNc2ncnc3ccccc23)cc1 >= 60%
Response line: TRUE

Prompt line: # bool: HCC1395 Cytotoxicity Efficacy of COc1cc(CNc2ncnc3sccc23)ccc1F >= 60%
Response line: FALSE

Prompt line: # bool: HCC1395 Cytotoxicity Efficacy of Clc1ccc(CCNc2ncnc3ccccc23)cc1 >= 60%
Response line: TRUE

Prompt line: # bool: HCC1395 Cytotoxicity Efficacy of COc1ccccc1CNc1ncnc2ccccc12 >= 60%
Response line: TRUE

Prompt line: # bool: HCC1395 Cytotoxicity Efficacy of CC(Nc1ncnc2ccccc12)c1ccc(F)cc1 (centres unmarked) >= 60%
Response line: FALSE

Prompt line: # bool: HCC1395 Cytotoxicity Efficacy of Clc1ccccc1CNc1ncnc2sccc12 >= 60%
Response line: TRUE

Prompt line: # bool: HCC1395 Cytotoxicity Efficacy of N#Cc1cccc(CNc2ncnc3sccc23)c1 >= 60%
Response line: FALSE

* * *

Test system: BT-20 TNBC cell line
Test: MTT survival assay BT-20
Assay type: cell-based
Details: Homo sapiens, BT-20; Table S2; read-out: MTT BT-20 IC50
pIC50: −log10 of the molar value.
Please use true (1) whenever pIC50 is not below 5, and false (0) whenever it is.

Prompt line: # bool: pIC50 of Clc1ccccc1CCNc1ncnc2sccc12 >= 5
Response line: false (0)

Prompt line: # bool: pIC50 of CN(CCc1ccccc1)c1ncnc2sccc12 >= 5
Response line: true (1)

Prompt line: # bool: pIC50 of Fc1ccc(CNc2ncnc3ccccc23)cc1 >= 5
Response line: true (1)

Prompt line: # bool: pIC50 of Clc1ccc(CNc2ncnc3sccc23)cc1 >= 5
Response line: true (1)

Prompt line: # bool: pIC50 of Cc1ccc(CNc2ncnc3ccccc23)cc1 >= 5
Response line: true (1)

Prompt line: # bool: pIC50 of COc1ccccc1C(C)Nc1ncnc2sccc12 (stereo not drawn) >= 5
Response line: true (1)

Prompt line: # bool: pIC50 of Fc1ccc(CNc2ncnc3sccc23)cc1 >= 5
Response line: true (1)

Prompt line: # bool: pIC50 of COc1cc(CNc2ncnc3sccc23)ccc1F >= 5
Response line: false (0)

Prompt line: # bool: pIC50 of Clc1ccc(CCNc2ncnc3sccc23)cc1 >= 5
Response line: true (1)

Prompt line: # bool: pIC50 of c1ccc(CCCNc2ncnc3sccc23)cc1 >= 5
Response line: false (0)

Prompt line: # bool: pIC50 of Cc1ccc(CNc2ncnc3sccc23)cc1 >= 5
Response line: true (1)

Prompt line: # bool: pIC50 of COc1cccc(CNc2ncnc3sccc23)c1 >= 5
Response line: true (1)

Prompt line: # bool: pIC50 of c1ccc(CNc2ncnc3sccc23)cc1 [Compound 4a, N-benzylthieno[2,3-d]pyrimidin-4-amine] >= 5
Response line: false (0)

Prompt line: # bool: pIC50 of c1ccc(CCNc2ncnc3sccc23)cc1 >= 5
Response line: false (0)

Prompt line: # bool: pIC50 of COc1ccccc1CNc1ncnc2sccc12 >= 5
Response line: false (0)

Prompt line: # bool: pIC50 of Clc1cccc(CCNc2ncnc3sccc23)c1 >= 5
Response line: false (0)

Prompt line: # bool: pIC50 of COc1cccc(CNc2ncnc3ccccc23)c1 >= 5
Response line: true (1)

Prompt line: # bool: pIC50 of COc1ccc(CNc2ncnc3ccccc23)cc1 >= 5
Response line: true (1)

Prompt line: # bool: pIC50 of Clc1cccc(CNc2ncnc3sccc23)c1 >= 5
Response line: true (1)

Prompt line: # bool: pIC50 of COc1cc(CNc2ncnc3sccc23)ccc1Cl >= 5
Response line: true (1)

Prompt line: # bool: pIC50 of CC(Nc1ncnc2sccc12)c1ccc(Cl)cc1 (stereo not drawn) >= 5
Response line: true (1)

Prompt line: # bool: pIC50 of COc1ccc(CNc2ncnc3sccc23)cc1 >= 5
Response line: false (0)

Prompt line: # bool: pIC50 of Cc1cccc(CNc2ncnc3sccc23)c1 >= 5
Response line: true (1)

* * *

Assay: in vitro
Settings: human, HCC1395 Cytotoxicity IC50
pIC50: −log10 of the molar value.
readout type: pIC50

Lab note: Clc1cccc(CNc2ncnc3sccc23)c1 gave pIC50 of < 4.30

Lab note: CCN(Cc1cccc(OC)c1)c1ncnc2sccc12 gave pIC50 of 5.08

Lab note: c1ccc(CCNc2ncnc3sccc23)cc1 gave pIC50 of < 4.30

Lab note: COc1cccc(CNc2ncnc3c(C)csc23)c1 gave pIC50 of < 4.00

Lab note: c1ccc(CCCNc2ncnc3sccc23)cc1 gave pIC50 of < 4.30

Lab note: Cc1ccc(C(C)Nc2ncnc3sccc23)cc1 (centres unmarked) gave pIC50 of < 4.30

Lab note: COc1cc(CNc2ncnc3sccc23)ccc1F gave pIC50 of 5.39

Lab note: Fc1ccccc1CNc1ncnc2sccc12 gave pIC50 of 5.13

Lab note: CC(Nc1ncnc2sccc12)c1ccc(F)cc1 (centres unmarked) gave pIC50 of < 4.30

Lab note: COc1ccccc1CNc1ncnc2ccccc12 gave pIC50 of 4.54

Lab note: Clc1ccc(CCNc2ncnc3sccc23)cc1 gave pIC50 of < 4.30

Lab note: COc1cc(CNc2ncnc3sccc23)ccc1Cl gave pIC50 of < 4.30

Lab note: N#Cc1cccc(CNc2ncnc3sccc23)c1 gave pIC50 of 5.00

Lab note: CC(Nc1ncnc2sccc12)c1ccc(Cl)cc1 (centres unmarked) gave pIC50 of 4.62

Lab note: CC(Nc1ncnc2ccccc12)c1ccc(F)cc1 (centres unmarked) gave pIC50 of 4.78

Lab note: COc1cccc(CNc2ccnc3ccccc23)c1 gave pIC50 of 4.73

Lab note: COc1cccc(CNc2nccc3ccccc23)c1 gave pIC50 of < 4.00

Lab note: Clc1cccc(CCNc2ncnc3sccc23)c1 gave pIC50 of < 4.30

Lab note: CN(CCc1ccccc1)c1ncnc2sccc12 gave pIC50 of < 4.30

Lab note: Clc1ccccc1CCNc1ncnc2sccc12 gave pIC50 of < 4.30

Lab note: Fc1ccc(CNc2ncnc3ccccc23)cc1 gave pIC50 of < 4.30

Lab note: Cc1cccc(CNc2ncnc3sccc23)c1 gave pIC50 of < 4.30

Lab note: COc1ccccc1C(C)Nc1ncnc2sccc12 (centres unmarked) gave pIC50 of < 4.30

Lab note: Clc1ccccc1CNc1ncnc2sccc12 gave pIC50 of 5.06

Lab note: Clc1ccc(CNc2ncnc3sccc23)cc1 gave pIC50 of < 4.30

Lab note: COc1ccccc1CNc1ncnc2sccc12 gave pIC50 of < 4.30

Lab note: Cc1ccc(C(C)Nc2ncnc3ccccc23)cc1 (centres unmarked) gave pIC50 of 4.99

Lab note: Cc1ccc(CNc2ncnc3ccccc23)cc1 gave pIC50 of 5.09

Lab note: Cc1ccc(CNc2ncnc3sccc23)cc1 gave pIC50 of < 4.30

Lab note: COc1cccc(CNc2ncnc3sccc23)c1 gave pIC50 of < 4.30

Lab note: COc1cccc(CNc2ncnc3ccccc23)c1 gave pIC50 of < 4.30

Lab note: Fc1ccc(CNc2ncnc3sccc23)cc1 gave pIC50 of < 4.30

* * *

System: MDA-MB-231 TNBC cell line
Assay: MTT survival assay MDA-MB-231
Format: cell-based
Details: Table S2
Exercise: state measured MTT MDA-MB-231 plateau for each of the compounds provided.

// assay MDA-MB-231 TNBC cell line, entry COc1cccc(CNc2ncnc3sccc23)c1 [Compound 4c] , MTT MDA-MB-231 plateau value = 100

// assay MDA-MB-231 TNBC cell line, entry c1ccc(CNc2ncnc3sccc23)cc1 [Compound 4a, N-benzylthieno[2,3-d]pyrimidin-4-amine] , MTT MDA-MB-231 plateau value = 100

// assay MDA-MB-231 TNBC cell line, entry Clc1ccc(CNc2ncnc3sccc23)cc1 [Compound 4j] , MTT MDA-MB-231 plateau value = 92.63

// assay MDA-MB-231 TNBC cell line, entry Clc1cccc(CNc2ncnc3sccc23)c1 [Compound 4i] , MTT MDA-MB-231 plateau value = 100

// assay MDA-MB-231 TNBC cell line, entry Fc1ccc(CNc2ncnc3sccc23)cc1 [Compound 4g] , MTT MDA-MB-231 plateau value = 100

// assay MDA-MB-231 TNBC cell line, entry CN(CCc1ccccc1)c1ncnc2sccc12 [Compound 5j] , MTT MDA-MB-231 plateau value = 92.68

// assay MDA-MB-231 TNBC cell line, entry Clc1ccc(CNc2ncnc3ccccc23)cc1 [Compound 9e, N-(4-chloro)quinazolin-4-amine] , MTT MDA-MB-231 plateau value = 100
